target: UniProt:Q9F4K3; experiment: IC50 of β-lactamase inhibitors, crude extract, FOX-5; assay type: biochemical; details: FOX-5; crude extract of E. coli TOP10 recombinant strain; mean of triplicate; read-out: IC50
Sequence (Q9F4K3 entry or part of it): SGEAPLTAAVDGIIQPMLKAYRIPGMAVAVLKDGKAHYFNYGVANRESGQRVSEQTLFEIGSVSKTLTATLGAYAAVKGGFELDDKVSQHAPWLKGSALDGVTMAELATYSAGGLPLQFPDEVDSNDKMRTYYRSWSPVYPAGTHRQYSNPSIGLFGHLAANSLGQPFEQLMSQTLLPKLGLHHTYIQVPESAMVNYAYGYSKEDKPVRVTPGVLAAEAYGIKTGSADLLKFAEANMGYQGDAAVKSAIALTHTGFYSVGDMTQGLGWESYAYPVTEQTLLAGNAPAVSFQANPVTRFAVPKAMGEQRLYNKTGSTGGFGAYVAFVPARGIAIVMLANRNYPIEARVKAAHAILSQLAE
Result Type: pIC50
The read-out pIC50 is expressed as -log10 of concentration in moles per litre.

Input: Using the record for NCCN[C@H]1CC[C@H](CC(=O)N[C@H]2Cc3cccc(C(=O)O)c3OB2O)CC1 , report its pIC50.
Output: 6.80

###

biological target: ADC-50 (Acinetobacter baumannii, UniProt Q6DRA1); assay: IC50 of β-lactamase inhibitors, crude extract, ADC-50; type: biochemical, A. baumannii; settings: ADC-50; crude extract of E. coli TOP10 recombinant strain; mean of triplicate; listed as ZID
Result Type: pIC50
The read-out pIC50 is expressed as -log10 of concentration in moles per litre.

Input: Using the record for O=C(NNC(=O)[C@@H]1CC[C@@H]2CN1C(=O)N2OS(=O)(=O)O)[C@@H]1CCCNC1 [Zidebactam, zidebactam] , report its pIC50.
Output: 5.30
